- Target Desc: rat CB2 receptor (rCB2) (Rattus norvegicus, UniProt Q9QZN9)
- Method Summary: cell-based
- Assay type: cell-based
- Measurement Context: agonist or inverse agonist at rCB2

Compound	Target Desc	+/− RCB2
C[C@@H](NC(=O)c1nc(-c2ccccc2)n2c1CN(C(=O)C1CCOC1)CC2)C1CCCCC1 (stereo partly shown)	rat CB2 receptor (rCB2) (Rattus norvegicus, UniProt Q9QZN9)	−
CNC(=O)[C@@H](NC(=O)c1nc(Cc2ccccc2)n2c1CN(C)CCC2)C(C)(C)C	rat CB2 receptor (rCB2) (Rattus norvegicus, UniProt Q9QZN9)	+
CNC(=O)[C@@H](NC(=O)c1nc(-c2ccsc2)n2c1CNCC2)C(C)(C)C	rat CB2 receptor (rCB2) (Rattus norvegicus, UniProt Q9QZN9)	+
CNC(=O)[C@@H](NC(=O)c1nc(/C=C/Cc2ccccc2)n2c1CN(C)CCC2)C(C)(C)C	rat CB2 receptor (rCB2) (Rattus norvegicus, UniProt Q9QZN9)	−

----------
Please go through the items and note down their EC50.
- Target Desc: rat CB2 receptor (rCB2) (Rattus norvegicus, UniProt Q9QZN9)
- Method Summary: cell-based
- Assay type: cell-based

CNC(=O)[C@@H](NC(=O)c1nc(-c2ccc(C)cc2)n2c1CN(C)CCC2)C(C)(C)C > 10 µM

Give measured EC50 for every item shown.
1. CNC(=O)[C@@H](NC(=O)c1nc(-c2ccc(F)cc2)n2c1CN(C)CCC2)C(C)(C)C
2. CNC(=O)[C@@H](NC(=O)c1nc(-c2ccc(C)c(F)c2)n2c1CN(C)CCC2)C(C)(C)C

> 10 µM
> 10 µM

----------
- Target Desc: rat CB2 receptor (rCB2) (Rattus norvegicus, UniProt Q9QZN9)
- Sequence (Q9QZN9 1-360): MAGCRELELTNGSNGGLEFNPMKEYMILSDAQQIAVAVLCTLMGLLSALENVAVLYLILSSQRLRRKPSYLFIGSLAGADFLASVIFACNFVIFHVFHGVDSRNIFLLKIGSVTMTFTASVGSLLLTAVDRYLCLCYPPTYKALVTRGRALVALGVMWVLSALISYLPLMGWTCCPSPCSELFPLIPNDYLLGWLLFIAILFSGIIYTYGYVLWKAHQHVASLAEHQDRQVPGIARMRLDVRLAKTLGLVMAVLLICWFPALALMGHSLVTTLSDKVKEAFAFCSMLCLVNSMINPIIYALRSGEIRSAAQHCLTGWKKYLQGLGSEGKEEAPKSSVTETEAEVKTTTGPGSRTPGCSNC
- Method Summary: cell-based
- Format: cell-based
- Measurement Context: agonist or inverse agonist at rCB2
Property Name: +/− RCB2

Consider the worked cases shown below.
Molecule	Target Desc	+/− RCB2
CNC(=O)[C@@H](NC(=O)c1nc(-c2ccc(F)c(C#N)c2)n2c1CN(C)CCC2)C(C)(C)C	rat CB2 receptor (rCB2) (Rattus norvegicus, UniProt Q9QZN9)	+
CC(C)C[C@H](NC(=O)c1nc(-c2ccc(Cl)cc2F)n2c1CN(C)CCC2)C(N)=O	rat CB2 receptor (rCB2) (Rattus norvegicus, UniProt Q9QZN9)	+
CNC(=O)[C@H](CC(C)(C)C)NC(=O)c1nc(-c2ccc(Cl)cc2F)n2c1CN(C)CCC2	rat CB2 receptor (rCB2) (Rattus norvegicus, UniProt Q9QZN9)	+
CNC(=O)[C@H](CC(C)C)NC(=O)c1nc(-c2ccc(F)c(F)c2)n2c1CN(C)CCC2	rat CB2 receptor (rCB2) (Rattus norvegicus, UniProt Q9QZN9)	+
CNC(=O)[C@@H](NC(=O)c1nc(C2=CCC(C)CC2)n2c1CN(C)CC2)C(C)(C)C (some centres unmarked)	rat CB2 receptor (rCB2) (Rattus norvegicus, UniProt Q9QZN9)	−
CNC(=O)[C@@H](NC(=O)c1nc(-c2ccc(N3CCOCC3)cc2)n2c1CN(C)CCC2)C(C)(C)C	rat CB2 receptor (rCB2) (Rattus norvegicus, UniProt Q9QZN9)	−
CNC(=O)C(NC(=O)c1nc(-c2ccccc2)n2c1CNCCC2)C(C)(C)F (centres unmarked)	rat CB2 receptor (rCB2) (Rattus norvegicus, UniProt Q9QZN9)	+

// below: +/− RCB2 requested for another molecule
Output +/− RCB2 of `COC(=O)N1CCn2c(-c3ccccc3)nc(C(=O)NCC3CCOCC3)c2C1` −

----------
- Target Desc: rat CB2 receptor (rCB2) (Rattus norvegicus, UniProt Q9QZN9)
- Sequence (Q9QZN9 1-360): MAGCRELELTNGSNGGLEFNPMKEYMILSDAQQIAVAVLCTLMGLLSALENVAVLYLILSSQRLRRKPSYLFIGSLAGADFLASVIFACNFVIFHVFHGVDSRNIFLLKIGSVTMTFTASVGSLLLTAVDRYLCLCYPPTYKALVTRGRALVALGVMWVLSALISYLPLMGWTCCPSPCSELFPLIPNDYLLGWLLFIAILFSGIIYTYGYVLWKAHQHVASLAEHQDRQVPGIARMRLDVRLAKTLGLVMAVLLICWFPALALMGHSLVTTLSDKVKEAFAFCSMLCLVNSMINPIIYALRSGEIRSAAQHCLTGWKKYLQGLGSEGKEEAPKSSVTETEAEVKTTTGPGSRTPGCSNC
- Method Summary: cell-based
- Assay type: cell-based
- Measurement Context: agonist or inverse agonist at rCB2
Property Name: +/− RCB2

Consider the worked cases shown below.
CC(C)CN1CCn2c(-c3ccc(Cl)cc3)nc(C(=O)N[C@H](CO)C(C)(C)C)c2C1 −
CCS(=O)(=O)N1CCn2c(-c3ccccc3)nc(C(=O)NN3CCCCC3)c2C1 −
CNC(=O)[C@@H](NC(=O)c1nc(CCCOC)n2c1CN(C)CCC2)C(C)(C)C +
O=C(NN1CCCCC1)c1nc(-c2ccccc2)n2c1CNCC2 −
CN1CCCn2c(-c3cc(F)ccc3F)nc(C(=O)N[C@H](C(=O)N(C)C)C(C)(C)C)c2C1 −
COC(=O)N1CCn2c(-c3ccc(Cl)cc3)nc(C(=O)N[C@H](CO)C(C)(C)C)c2C1 −
CNC(=O)[C@@H](NC(=O)c1nc(/C=C/C2CCCCC2)n2c1CN(C)CCC2)C(C)(C)C +
CN1CCCn2c(-c3ccc(Cl)c(F)c3)nc(C(=O)N[C@@H](CC(C)(C)C)C(N)=O)c2C1 +

Give measured +/− RCB2 for every item shown.
1. CC(C)CN1CCn2c(-c3ccccc3)nc(C(=O)NCC3CCOCC3)c2C1
2. CNC(=O)[C@@H](NC(=O)c1nc(-c2ccc(Cl)cc2F)n2c1CN(CC(C)C)CCC2)C(C)(C)C

1: −; 2: −

----------
- Target Desc: rat CB2 receptor (rCB2) (Rattus norvegicus, UniProt Q9QZN9)
- Method Summary: cell-based
- Format: cell-based
- Measurement Context: agonist or inverse agonist at rCB2
Property Name: +/− RCB2

Consider the worked cases shown below.
CNC(=O)[C@@H](NC(=O)c1nc(-c2cccc(C(F)(F)F)c2)n2c1CNCC2)C(C)(C)C −
CC(C)CCNC(=O)c1nc(-c2ccc(Cl)cc2)n2c1CN(C(=O)C1CC1)CC2 −
CNC(=O)[C@@H](NC(=O)c1nc(C2CC2)n2c1CN(C)CC2)C(C)(C)C +
CNC(=O)[C@@H](NC(=O)c1nc(/C=C/c2ccccc2)n2c1CN(C)CCC2)C(C)(C)C −
O=C(NC1CCCCC1)c1nc(-c2ccccc2)n2c1CN(CCO)CC2 −

Give measured +/− RCB2 for every item shown.
1. CN1CCCn2c(-c3ccc(F)c(Cl)c3)nc(C(=O)N[C@H](C(N)=O)C(C)(C)C)c2C1
2. COC(=O)N1CCn2c(-c3ccccc3)nc(C(=O)Nc3ccccc3)c2C1
3. CNC(=O)[C@@H](NC(=O)c1nc(-c2ccc(Cl)cc2)n2c1CNCC2)C(C)(C)C
4. CNC(=O)[C@@H](NC(=O)c1nc(-c2cccc(C#N)c2)n2c1CN(C)CCC2)C(C)(C)C
5. CCN1CCn2c(-c3ccc(Cl)cc3)nc(C(=O)N[C@H](CO)C(C)(C)C)c2C1
6. CCN1CCn2c(-c3ccccc3)nc(C(=O)NCC3CCOCC3)c2C1

1. +
2. −
3. −
4. +
5. −
6. −

Give measured +/− RCB2 for every item shown.
1. CNC(=O)[C@@H](NC(=O)c1nc(-c2cn[nH]c2)n2c1CN(C)CCC2)C(C)(C)C
2. CNC(=O)[C@@H](NC(=O)c1nc(-c2ccncc2F)n2c1CN(C)CCC2)C(C)(C)C

1: +; 2: +

----------
- Target Desc: rat CB2 receptor (rCB2) (Rattus norvegicus, UniProt Q9QZN9)
- Sequence (Q9QZN9 1-360): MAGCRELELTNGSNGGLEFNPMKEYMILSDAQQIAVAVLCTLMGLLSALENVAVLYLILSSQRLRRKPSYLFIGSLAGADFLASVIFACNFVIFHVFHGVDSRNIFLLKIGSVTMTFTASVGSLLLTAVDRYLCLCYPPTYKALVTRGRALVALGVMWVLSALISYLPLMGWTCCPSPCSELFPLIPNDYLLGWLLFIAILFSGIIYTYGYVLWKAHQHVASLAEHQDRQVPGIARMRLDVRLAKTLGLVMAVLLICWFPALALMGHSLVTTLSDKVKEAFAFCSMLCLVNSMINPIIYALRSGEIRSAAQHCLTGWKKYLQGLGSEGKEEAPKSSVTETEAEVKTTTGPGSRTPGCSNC
- Method Summary: cell-based
- Type: cell-based
- Measurement Context: agonist or inverse agonist at rCB2
Property Name: +/− RCB2

Consider the worked cases shown below.
Compound	+/− RCB2
CNC(=O)[C@@H](NC(=O)c1nc(-c2cccs2)n2c1CNCC2)C(C)(C)C	+
CN1CCn2c(-c3ccc(Cl)cc3F)nc(C(=O)N3CCC(n4c(=O)[nH]c5ccccc54)CC3)c2C1	−
CNC(=O)[C@@H](NC(=O)c1nc(-c2ccc(OC)c(C)c2)n2c1CN(C)CCC2)C(C)(C)C	−
CNC(=O)[C@H](CC(C)C)NC(=O)c1nc(C2=CCCCO2)n2c1CN(C)CC2	+
CNC(=O)C(NC(=O)c1nc(-c2ccccc2)n2c1CN(C)CCC2)C(C)(C)F (centres unmarked)	+
CC(C)(C)OC(=O)N1CCn2c(-c3ccccc3)nc(C(=O)NC3CCCCC3)c2C1	−
CN1CCn2c(-c3ccccc3)nc(C(=O)N3CCOCC3)c2C1	−

// below: +/− RCB2 requested for another compound
Retrieve +/− RCB2 on rat CB2 receptor (rCB2) (Rattus norvegicus, UniProt Q9QZN9); query `CNC(=O)[C@@H](NC(=O)c1nc(/C=C/CN2CCCC2)n2c1CN(C)CCC2)C(C)(C)C` +
